tested on: 361931-004-R-J1-PDC multicell spheroid viability; assay: Anticancer human tumor 361931-004-R-J1-PDC patient-derived colon adenocarcinoma cell line growth inhibition [PI3K]; settings: curve of first compound; second compound 1 µM
Attribute: IC50

Q: Suppose we examine the compound CC(Cn1ccc(-c2ccc(C#N)c(Cl)c2)n1)NC(=O)c1cc(C(C)O)[nH]n1 (stereo unspecified) + COc1c(OCCCN2CCOCC2)ccc2c3n(c(=NC(=O)c4cnc(N)nc4)nc12)CCN3 ; what IC50 value has been reported?
A: < 31.6 nM

Q: Give its IC50 value. Item: CC1(C)CCC(Nc2ncc(C(F)(F)F)c(-c3c[nH]c4c(P(C)(C)=O)c(C#N)ccc34)n2)CN1 (stereo unspecified) + CC(Nc1ncnc2nc[nH]c12)c1cc2cccc(Cl)c2c(=O)n1-c1ccccc1
A: 5580 nM

Q: Give the measured IC50 of Cn1nccc1Nc1nccc(-c2ccn(C(CO)c3ccc(Cl)c(F)c3)c(=O)c2)n1 (stereo unspecified) + CC(Nc1ccc2c(c1)OCCn1cc(N3C(=O)OCC3C(F)F)nc1-2)C(N)=O .
A: 1090 nM

Next:
Q: Using the record for CC1(C)CCC(CN2CCN(c3ccc(C(=O)NS(=O)(=O)c4ccc(NCC5CCOCC5)c([N+](=O)[O-])c4)c(Oc4cnc5[nH]ccc5c4)c3)CC2)=C(c2ccc(Cl)cc2)C1 + COc1c(OCCCN2CCOCC2)ccc2c3n(c(=NC(=O)c4cnc(N)nc4)nc12)CCN3 , report its IC50.
A: < 31.6 nM

---

tested on: 361931-004-R-J1-PDC multicell spheroid viability; experiment: Anticancer human tumor 361931-004-R-J1-PDC cell line growth inhibition [PI3K]; conditions: second compound 0.01 µM; first compound 0.0316 µM; stronger effect = lower value;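 further: spheroids exposed to agents for seven days before readout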
quantity_measured: viability, T/C (%)
Report the figure in % without appending any unit label.

Sample answers from the record:
Q: If you can, please state the reported viability, T/C value of C[C@@H](NC(=O)c1ncnc(N)c1Cl)c1ncc(C(=O)Nc2cc(C(F)(F)F)c(Cl)cn2)s1 + COc1c(OCCCN2CCOCC2)ccc2c3n(c(=NC(=O)c4cnc(N)nc4)nc12)CCN3 .
A: 110

Q: Quick one: viability, T/C of C#Cc1c(F)ccc2cc(O)cc(-c3ncc4c(N5CC6CCC(C5)N6)nc(OCC56CCCN5CC(F)C6)nc4c3F)c12 (stereo not drawn) + CC(Nc1ccc2c(c1)OCCn1cc(N3C(=O)OCC3C(F)F)nc1-2)C(N)=O ?
A: 101

Now for a further compound.
Q: Record request: viability, T/C value, item CC(C)n1nc(-c2ccc3oc(N)nc3c2)c2c(N)ncnc21 + CC(Nc1ccc2c(c1)OCCn1cc(N3C(=O)OCC3C(F)F)nc1-2)C(N)=O
A: 95.8

---

tested on: 361931-004-R-J1-PDC multicell spheroid viability; assay: Anticancer human tumor 361931-004-R-J1-PDC cell line growth inhibition [PI3K]; conditions: second compound 0.1 µM; first compound 10 µM; stronger effect = lower value;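 further: spheroids exposed to agents for seven days before readout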
Measured viability, T/C accompanies every entry in the list below.
// note: answer is a bare numeric in %

Q: Fill in: viability, T/C of CC1(C)CCC(Nc2ncc(C(F)(F)F)c(-c3c[nH]c4c(P(C)(C)=O)c(C#N)ccc34)n2)CN1 (stereo not drawn) + COc1c(OCCCN2CCOCC2)ccc2c3n(c(=NC(=O)c4cnc(N)nc4)nc12)CCN3 is ___
A: 8.34

Q: Name the recorded viability, T/C for CC(C)NCC(C(=O)N1CCN(c2ncnc3c2C(C)CC3O)CC1)c1ccc(Cl)cc1 (stereo not drawn) + CC(Nc1ccc2c(c1)OCCn1cc(N3C(=O)OCC3C(F)F)nc1-2)C(N)=O .
A: 18.3

Next compound, please.
Q: Form field: reported viability, T/C of CCCS(=O)(=O)Nc1ccc(F)c(C(=O)c2c[nH]c3ncc(-c4ccc(Cl)cc4)cc23)c1F + CC(Nc1ncnc2nc[nH]c12)c1cc2cccc(Cl)c2c(=O)n1-c1ccccc1
A: 6.96
